Please go through the items and note down their Population Mitotic Cells (%).
# System: HEK-293T
# assay_comment: Multiplex assay against HEK293T
# Assay type: toxicity, cell-based
# measurement_conditions: human, 12 h, 10 µM, compound concentration 10 uM, replicate 1
Supply the numeric figure in %, leaving out any unit text.

[ask] What measured Population Mitotic Cells (%) is associated with COc1ccc(NS(=O)(=O)c2sc3ccc(Cl)cc3c2C)cc1N1CCNCC1.Cl on HEK-293T?
[reply] 28

[ask] What measured Population Mitotic Cells (%) is associated with Cc1cc2c(cc1N1C(=O)c3cccc4c(CCCO)ccc(c34)C1=O)n(C)c(=O)n2C on HEK-293T?
[reply] 46

[ask] What measured Population Mitotic Cells (%) is associated with CN(C)C/C=C/C(=O)Nc1cc2c(Nc3ccc(F)c(Cl)c3)ncnc2cc1O[C@H]1CCOC1.O=C(O)/C=C\C(=O)O.O=C(O)/C=C\C(=O)O [AFATINIB DIMALEATE] on HEK-293T?
[reply] 76

[ask] What measured Population Mitotic Cells (%) is associated with N#Cc1cnc(Nc2cc(NC[C@H]3CNCCO3)c(C(F)(F)F)cn2)cn1 on HEK-293T?
[reply] 79

[ask] What measured Population Mitotic Cells (%) is associated with COc1cc2c(NC3CCN(C(C)C)CC3)nc(N3CCC(F)(F)CC3)nc2cc1OCCCN1CCCC1 on HEK-293T?
[reply] 9

[ask] What measured Population Mitotic Cells (%) is associated with CCC(=O)O[C@]1(C(=O)SCF)[C@H](C)C[C@H]2[C@@H]3C[C@H](F)C4=CC(=O)C=C[C@]4(C)[C@@]3(F)[C@@H](O)C[C@@]21C [FLUTICASONE PROPIONATE] on HEK-293T?
[reply] 31

[ask] What measured Population Mitotic Cells (%) is associated with O=C(O)c1ccc2cc(-c3ccc(O)c(C45CC6CC(CC(C6)C4)C5)c3)ccc2c1 on HEK-293T?
[reply] 46

###

Please go through the items and note down their Population Apoptotic (%).
# Test system: U2OS
# assay_comment: Multiplex assay against U2OS
# Type: toxicity, cell-based
# measurement_conditions: human, 48 h, 10 µM, compound concentration 10 uM, replicate 2
Supply the numeric figure in %, leaving out any unit text.

[ask] Consider the molecule shown here: COc1ccc(NS(=O)(=O)c2sc3ccc(Cl)cc3c2C)cc1N1CCNCC1.Cl What is its recorded Population Apoptotic (%)?
[reply] 68

[ask] Consider the molecule shown here: CCCn1c(=O)c2[nH]c(C34CC5CC(CC3C5)C4)nc2n(CCC)c1=O [ROLOFYLLINE] What is its recorded Population Apoptotic (%)?
[reply] 66

[ask] Consider the molecule shown here: CCC(=O)O[C@]1(C(=O)SCF)[C@H](C)C[C@H]2[C@@H]3C[C@H](F)C4=CC(=O)C=C[C@]4(C)[C@@]3(F)[C@@H](O)C[C@@]21C [FLUTICASONE PROPIONATE] What is its recorded Population Apoptotic (%)?
[reply] 45

[ask] Consider the molecule shown here: Cc1cc2c(cc1N1C(=O)c3cccc4c(CCCO)ccc(c34)C1=O)n(C)c(=O)n2C What is its recorded Population Apoptotic (%)?
[reply] 88

[ask] Consider the molecule shown here: CCc1cc2c(cc1CC)CC(NC[C@H](O)c1ccc(O)c3[nH]c(=O)ccc13)C2 [INDACATEROL] What is its recorded Population Apoptotic (%)?
[reply] 73

[ask] Consider the molecule shown here: CC(C)N1CCC(C)(C)c2cc(C#Cc3ccc(C(=O)O)cc3)ccc21 What is its recorded Population Apoptotic (%)?
[reply] 100

[ask] Consider the molecule shown here: CCn1c(-c2nonc2N)nc2cnc(Oc3cccc(NC(=O)c4ccc(OCCN5CCOCC5)cc4)c3)cc21 [GSK-269962A] What is its recorded Population Apoptotic (%)?
[reply] 57

###

# System: Fibroblast
# assay_comment: Multiplex assay against human fibroblast
# Format: toxicity, cell-based
# measurement_conditions: 24 h, 1 µM, compound concentration 1 uM, replicate 1
Label 1 when Population Apoptotic (%) is strictly below 80%; otherwise label -1.

[ask] Find out if reported Population Apoptotic (%) for COc1cc(N2CCC(N(C)C)CC2)ccc1Nc1ncc(Cl)c(Nc2ccccc2P(C)(C)=O)n1 is less than 80%
[reply] -1

[ask] Find out if reported Population Apoptotic (%) for CC(C)(C)c1cnc(CSc2cnc(NC(=O)C3CCNCC3)s2)o1 is less than 80%
[reply] 1

[ask] Find out if reported Population Apoptotic (%) for CN(C)CCOc1ccc(-c2nc(-c3ccncc3)c(-c3ccc4c(c3)CC/C4=N\O)[nH]2)cc1 is less than 80%
[reply] -1

[ask] Find out if reported Population Apoptotic (%) for COc1cc2c(Nc3ccc(NC(=O)c4ccccc4)cc3)ncnc2cc1OCCCN1CCOCC1 is less than 80%
[reply] 1

[ask] Find out if reported Population Apoptotic (%) for CNc1oc(-c2cccc3ccccc23)nc1C#N is less than 80%
[reply] 1

[ask] Find out if reported Population Apoptotic (%) for CCC(=O)O[C@]1(C(=O)SCF)[C@H](C)C[C@H]2[C@@H]3C[C@H](F)C4=CC(=O)C=C[C@]4(C)[C@@]3(F)[C@@H](O)C[C@@]21C [FLUTICASONE PROPIONATE] is less than 80%
[reply] 1

[ask] Find out if reported Population Apoptotic (%) for CCOc1cc(N2CCC(O)CC2)ccc1Nc1ncc2c(n1)N(C1CCCC1)CCC(=O)N2C is less than 80%
[reply] 1

###

# Test system: U2OS
# assay_comment: Multiplex assay against U2OS
# Format: toxicity, cell-based
# measurement_conditions: human, 24 h, 10 µM, compound concentration 10 uM, replicate 1
reported_endpoint: Population Apoptotic (%)

[ask] Consider the compound shown here: CCOc1cc(N2CCC(O)CC2)ccc1Nc1ncc2c(n1)N(C1CCCC1)CCC(=O)N2C What is its recorded Population Apoptotic (%)?
[reply] 44%

[ask] Consider the compound shown here: CCC(=O)O[C@]1(C(=O)SCF)[C@H](C)C[C@H]2[C@@H]3C[C@H](F)C4=CC(=O)C=C[C@]4(C)[C@@]3(F)[C@@H](O)C[C@@]21C [FLUTICASONE PROPIONATE] What is its recorded Population Apoptotic (%)?
[reply] 53%

[ask] Consider the compound shown here: c1ccc2oc(-c3csc(C4CCN(Cc5nc6ncccc6[nH]5)CC4)n3)cc2c1 What is its recorded Population Apoptotic (%)?
[reply] 45%

[ask] Consider the compound shown here: COc1cc2c(NC3CCN(C(C)C)CC3)nc(N3CCC(F)(F)CC3)nc2cc1OCCCN1CCCC1 What is its recorded Population Apoptotic (%)?
[reply] 70%

[ask] Consider the compound shown here: CCc1cc2c(cc1CC)CC(NC[C@H](O)c1ccc(O)c3[nH]c(=O)ccc13)C2 What is its recorded Population Apoptotic (%)?
[reply] 78%

[ask] Consider the compound shown here: CCCn1c(=O)c2[nH]c(C34CC5CC(CC3C5)C4)nc2n(CCC)c1=O What is its recorded Population Apoptotic (%)?
[reply] 60%

[ask] Consider the compound shown here: CN(C)C/C=C/C(=O)Nc1cc2c(Nc3ccc(F)c(Cl)c3)ncnc2cc1O[C@H]1CCOC1.O=C(O)/C=C\C(=O)O.O=C(O)/C=C\C(=O)O [AFATINIB DIMALEATE] What is its recorded Population Apoptotic (%)?
[reply] 81%

###

# Tested on: HEK-293T
# assay_comment: Multiplex assay against HEK293T
# Format: toxicity, cell-based
# measurement_conditions: human, 24 h, 1 µM, compound concentration 1 uM, replicate 1
reported_endpoint: Population Healthy Nuclei (%)
Supply the numeric figure in %, leaving out any unit text.

[ask] Consider the compound shown here: CCC(=O)O[C@]1(C(=O)SCF)[C@H](C)C[C@H]2[C@@H]3C[C@H](F)C4=CC(=O)C=C[C@]4(C)[C@@]3(F)[C@@H](O)C[C@@]21C [FLUTICASONE PROPIONATE] What is its recorded Population Healthy Nuclei (%)?
[reply] 41

[ask] Consider the compound shown here: CC(=O)O[C@H]1C(=O)[C@@]2(C)[C@H]([C@H](OC(=O)c3ccccc3)[C@]3(O)C[C@H](OC(=O)[C@H](O)[C@@H](NC(=O)c4ccccc4)c4ccccc4)C(C)=C1C3(C)C)[C@]1(OC(C)=O)CO[C@@H]1C[C@@H]2O [PACLITAXEL] What is its recorded Population Healthy Nuclei (%)?
[reply] 79

[ask] Consider the compound shown here: Nc1nc2c(c(N3CCNCC3)n1)CCC1=C2[C@@H]2CCCC[C@@H]2O1 What is its recorded Population Healthy Nuclei (%)?
[reply] 59

###

# Tested on: HEK-293T
# assay_comment: Multiplex assay against HEK293T
# Assay type: toxicity, cell-based
# measurement_conditions: human, 48 h, 10 µM, compound concentration 10 uM, replicate 2
reported_endpoint: Population Normal (%)
Supply the numeric figure in %, leaving out any unit text.

[ask] Consider the compound shown here: C1=N/C2=N/c3ccc(OCCN4CCCC4)c(c3)COC/C=C\COCc3cccc(c3)C(=C1)N2 What is its recorded Population Normal (%)?
[reply] 84

[ask] Consider the compound shown here: CCc1cc2c(cc1CC)CC(NC[C@H](O)c1ccc(O)c3[nH]c(=O)ccc13)C2 What is its recorded Population Normal (%)?
[reply] 82

[ask] Consider the compound shown here: COc1cc(N2CCC(N(C)C)CC2)ccc1Nc1ncc(Cl)c(Nc2ccccc2P(C)(C)=O)n1 What is its recorded Population Normal (%)?
[reply] 82

[ask] Consider the compound shown here: COc1ccc(NS(=O)(=O)c2sc3ccc(Cl)cc3c2C)cc1N1CCNCC1.Cl What is its recorded Population Normal (%)?
[reply] 84

[ask] Consider the compound shown here: CCn1c(-c2nonc2N)nc2cnc(Oc3cccc(NC(=O)c4ccc(OCCN5CCOCC5)cc4)c3)cc21 [GSK-269962A] What is its recorded Population Normal (%)?
[reply] 92

[ask] Consider the compound shown here: CCCn1c(=O)c2[nH]c(C34CC5CC(CC3C5)C4)nc2n(CCC)c1=O What is its recorded Population Normal (%)?
[reply] 92

[ask] Consider the compound shown here: CCC(=O)O[C@]1(C(=O)SCF)[C@H](C)C[C@H]2[C@@H]3C[C@H](F)C4=CC(=O)C=C[C@]4(C)[C@@]3(F)[C@@H](O)C[C@@]21C [FLUTICASONE PROPIONATE] What is its recorded Population Normal (%)?
[reply] 94

[ask] Consider the compound shown here: COc1cc2c(NC3CCN(C(C)C)CC3)nc(N3CCC(F)(F)CC3)nc2cc1OCCCN1CCCC1 What is its recorded Population Normal (%)?
[reply] 78

[ask] Consider the compound shown here: Cc1cc2c(cc1N1C(=O)c3cccc4c(CCCO)ccc(c34)C1=O)n(C)c(=O)n2C What is its recorded Population Normal (%)?
[reply] 96

[ask] Consider the compound shown here: CNc1oc(-c2cccc3ccccc23)nc1C#N What is its recorded Population Normal (%)?
[reply] 47

[ask] Consider the compound shown here: CC(C)Oc1ccc(C(=O)N[C@H](CNC(=O)CN(C)C)Cc2ccc(-c3cn4cccc([C@H](C)O)c4n3)cc2)cc1Cl [GSK-923295A] What is its recorded Population Normal (%)?
[reply] 84

[ask] Consider the compound shown here: Nc1nc2c(c(N3CCNCC3)n1)CCC1=C2[C@@H]2CCCC[C@@H]2O1 What is its recorded Population Normal (%)?
[reply] 62

[ask] Consider the compound shown here: Cl.Cl.Nc1ncnc2c1c(-c1cccc(OCc3ccccc3)c1)cn2[C@H]1C[C@@H](CN2CCC2)C1 What is its recorded Population Normal (%)?
[reply] 87

[ask] Consider the compound shown here: CC(C)N1CCC(C)(C)c2cc(C#Cc3ccc(C(=O)O)cc3)ccc21 What is its recorded Population Normal (%)?
[reply] 47

[ask] Consider the compound shown here: Nc1ccc(C(=O)Nc2cccc(-c3nc(N4CCOCC4)c4oc5ncccc5c4n3)c2)cn1 What is its recorded Population Normal (%)?
[reply] 91

[ask] Consider the compound shown here: Cc1nc(Cc2cccc(C(F)(F)F)c2)sc1-c1ccc(C(N)=O)nc1 [TP-024n] What is its recorded Population Normal (%)?
[reply] 94

[ask] Consider the compound shown here: O=C(O)c1ccc2cc(-c3ccc(O)c(C45CC6CC(CC(C6)C4)C5)c3)ccc2c1 What is its recorded Population Normal (%)?
[reply] 90

[ask] Consider the compound shown here: CC(=O)c1cc(-c2cc(C(=O)NC3CC3)ccc2C)c2ncccn12 What is its recorded Population Normal (%)?
[reply] 96
